From: patent US8933195B2

GI50 data for DU145 (human prostate cancer cells) follow.
Only the number, expressed in nM, is required.

Worked examples, 5 compounds total:
C/C=C1\NC(=O)c2csc(n2)CNC(=O)C[C@@H](/C=C/CCSC(=O)CCCCCCC)OC(=O)[C@H](CC(C)C)NC1=O = 6
C=C1NC(=O)c2csc(n2)CNC(=O)C[C@@H](/C=C/CCSC(=O)CCCCCCC)OC(=O)[C@H](C(C)C)NC1=O = 2030
C/C=C1\NC(=O)C2=NC(=NC2)CNC(=O)C[C@@H](/C=C/CCSC(=O)CCCCCCC)OC(=O)[C@H](C(C)C)NC1=O = 5460
C/C=C1\NC(=O)c2csc(n2)CNC(=O)C[C@@H](/C=C/CCSC(=O)CCCCCCC)OC(=O)[C@H](C(C)C)NC1=O = 300
C/C=C1\NC(=O)c2csc(n2)CNC(=O)C[C@@H](/C=C/CCSC(=O)CCCCCCC)OC(=O)[C@H](C)NC1=O = 360

Here's the next entry for you.
What value of measured GI50 is listed for C/C=C1\NC(=O)C2N=C(CNC(=O)C[C@@H](/C=C/CCSC(=O)CCCCCCC)OC(=O)[C@H](C(C)C)NC1=O)O[C@@H]2C (stereo partly drawn) ? 56500

====

GI50 data for MCF-7 (human breast cancer cells) follow.
Only the number, expressed in nM, is required.

C/C=C1\NC(=O)c2cccc(c2)CNC(=O)C[C@@H](/C=C/CCSC(=O)CCCCCCC)OC(=O)[C@H](C(C)C)NC1=O = 650
C=C1NC(=O)c2csc(n2)CNC(=O)C[C@@H](/C=C/CCSC(=O)CCCCCCC)OC(=O)[C@H](C(C)C)NC1=O = 2100
C/C=C1\NC(=O)c2csc(n2)CNC(=O)C[C@@H](/C=C/CCS)OC(=O)[C@H](C(C)C)NC1=O = 59
C/C=C1\NC(=O)c2csc(n2)CNC(=O)C[C@@H](/C=C/CCSC(=O)CCCCCCC)OC(=O)[C@H](C)NC1=O = 200
CCCCCCCC(=O)SCC/C=C/[C@@H]1CC(=O)NCc2nc(cs2)C(=O)NCC(=O)N[C@@H](C(C)C)C(=O)O1 = 1200

What value of measured GI50 is listed for C/C=C1\NC(=O)c2csc(n2)CNC(=O)C[C@@H](/C=C/CCSC(=O)CCO)OC(=O)[C@H](C(C)C)NC1=O ? 4120

Further, for C/C=C1\NC(=O)c2csc(n2)[C@H](C(C)C)NC(=O)C[C@@H](/C=C/CCSC(=O)CCCCCCC)OC(=O)[C@H](C(C)C)NC1=O ? 130

Further, for C/C=C1\NC(=O)c2csc(n2)CNC(=O)C[C@@H](/C=C/CCSC(=O)CCCCCCC)OC(=O)[C@H](CCSC)NC1=O ? 1

====

target: HDAC1 (Homo sapiens); experiment: Measurement of biochemical activities of HDAC (fluorescently-labeled acetylated lysine substrate); details: read-out: IC50 HDAC1
Sequence (Q13547 whole entry, species assumed): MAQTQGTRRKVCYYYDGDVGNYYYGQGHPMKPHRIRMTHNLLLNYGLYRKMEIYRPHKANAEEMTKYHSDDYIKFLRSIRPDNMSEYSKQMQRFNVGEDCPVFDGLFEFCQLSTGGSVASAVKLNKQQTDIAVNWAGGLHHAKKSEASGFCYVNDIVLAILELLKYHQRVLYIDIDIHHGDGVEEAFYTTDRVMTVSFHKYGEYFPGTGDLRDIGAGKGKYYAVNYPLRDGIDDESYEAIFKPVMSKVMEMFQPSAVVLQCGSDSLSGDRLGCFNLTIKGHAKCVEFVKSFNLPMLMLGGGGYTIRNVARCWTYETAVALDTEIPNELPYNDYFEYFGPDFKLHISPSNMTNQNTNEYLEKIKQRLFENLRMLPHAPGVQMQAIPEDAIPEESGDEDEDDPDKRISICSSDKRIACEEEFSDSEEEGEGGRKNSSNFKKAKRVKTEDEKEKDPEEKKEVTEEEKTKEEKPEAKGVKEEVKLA
IC50 overview

Worked examples, 2 compounds total:
C/C=C1\NC(=O)c2csc(n2)CNC(=O)C[C@@H](/C=C/CCSC(=O)CCCCCCC)OC(=O)[C@H](C(C)C)NC1=O = < 10 µM
C/C=C1\NC(=O)C2N=C(CNC(=O)C[C@@H](/C=C/CCSC(=O)CCCCCCC)OC(=O)[C@H](C(C)C)NC1=O)S[C@@H]2C (some centres unmarked) = < 10 µM

Here's the next entry for you.
# get_value(readout= IC50, system= HDAC1 (Homo sapiens)) for C/C=C1\NC(=O)c2csc(n2)CNC(=O)C[C@@H](/C=C/CCSC(=O)CCCCCCC)OC(=O)[C@H](CC(C)C)NC1=O < 0.1 µM
